System: Escherichia coli
protocol-details: Antibacterial activity against Escherichia coli CCM 3954 after 24 hrs by microdilution method
Type: functional
assay-conditions: CCM 3954, 24 h
Field: label. Allowed values: label 1 (MIC < 3 µg/mL) or label 0 (MIC >= 3 µg/mL).

Is MIC strictly under 3 µg/mL for the entry CCCCCCCCCCCCOP(=O)(CCN(CCCN)CCCN)OC[C@H]1O[C@@H](n2ccc(=O)[nH]c2=O)[C@H](O)[C@@H]1O (stereo partly drawn) ?
label 0

* * *

Tested on: Staphylococcus haemolyticus
protocol-details: Antibacterial activity against fluoroquinolne-resistant Staphylococcus haemolyticus 16568 after 24 hrs by microdilution method
Type: functional
assay-conditions: Staphylococcus haemolyticus, 16568, 24 h
endpoint: MIC (µg/mL)
Enter your answer as a number in µg/mL; do not include the unit.

See these solved cases before continuing.
compound	system	reported
CCCCCCCCCCCCCCCCOP(=O)(CCN(CCCN)CCCN)OC[C@H]1O[C@@H](n2ccc(=O)[nH]c2=O)[C@H](O)[C@@H]1O (stereo partly drawn)	Staphylococcus haemolyticus	3.13
CCCCCCCCCCCCCCCOP(=O)(CCN(CCN)CCN)OC[C@H]1O[C@@H](n2ccc(=O)[nH]c2=O)[C@H](O)[C@@H]1O (stereo partly drawn)	Staphylococcus haemolyticus	1.56
CCCCCCCCCCCCCCOP(=O)(CCN(CCN)CCN)OC[C@H]1O[C@@H](n2ccc(=O)[nH]c2=O)[C@H](O)[C@@H]1O (stereo partly drawn)	Staphylococcus haemolyticus	3.13

Would you mind telling me what MIC value was observed for CCCCCCCCCCCCOP(=O)(CCN(CCCN)CCCN)OC[C@H]1O[C@@H](n2ccc(=O)[nH]c2=O)[C@H](O)[C@@H]1O (stereo partly drawn) ?
200

Would you mind telling me what MIC value was observed for CCCCCCCCCCCCCCCOP(=O)(CCN1CCC(N)C1)OC[C@H]1O[C@@H](n2ccc(=O)[nH]c2=O)[C@H](O)[C@@H]1O (stereo partly drawn) ?
6.25

* * *

The compounds listed here are annotated with their MIC.
Test system: Enterococcus faecalis
protocol-details: Antibacterial activity against Enterococcus faecalis CCM 4224 after 24 hrs by microdilution method
Format: functional
assay-conditions: CCM 4224, 24 h
The reply should consist of the numeric value with the unit placed after it.

See these solved cases before continuing.
compound	reported
CCCCCCCCCCCCCCCOP(=O)(CCN1C[C@@H](O)[C@@H](N)C1)OC[C@H]1O[C@@H](n2ccc(=O)[nH]c2=O)[C@H](O)[C@@H]1O (stereo partly drawn)	12.5 µg/mL
CCCCCCCCCCCCCCCCOP(=O)(CCN(CCCNC(=N)N)CCCNC(=N)N)OC[C@H]1O[C@@H](n2ccc(=O)[nH]c2=O)[C@H](O)[C@@H]1O (stereo partly drawn)	6.25 µg/mL

Now for the compound whose MIC we want.
Would you mind telling me what MIC value was observed for CCCCCCCCCCCCCCCCOP(=O)(CCN(CCN)CCN)OC[C@H]1O[C@@H](n2ccc(=O)[nH]c2=O)[C@H](O)[C@@H]1O (stereo partly drawn) ?
12.5 µg/mL

* * *

The compounds listed here are annotated with their MIC.
System: Acinetobacter baumannii
protocol-details: Antibacterial activity against Acinetobacter baumannii A3-08 after 24 hrs by microdilution method
Assay type: functional
assay-conditions: A3-08, 24 h
Enter your answer as a number in µg/mL; do not include the unit.

See these solved cases before continuing.
compound	system	unit	reported
CCCCCCCCCCCCCCCOP(=O)(CCN(CCCN)CCCN)OC[C@H]1O[C@@H](n2ccc(=O)[nH]c2=O)[C@H](O)[C@@H]1O (some centres not stated)	Acinetobacter baumannii	µg/mL	3.13
CCCCCCCCCCCCCCCCOP(=O)(CCN(CCCNC(=N)N)CCCNC(=N)N)OC[C@H]1O[C@@H](n2ccc(=O)[nH]c2=O)[C@H](O)[C@@H]1O (some centres not stated)	Acinetobacter baumannii	µg/mL	3.13
CCCCCCCCCCCCOP(=O)(CCN(CCCN)CCCN)OC[C@H]1O[C@@H](n2ccc(=O)[nH]c2=O)[C@H](O)[C@@H]1O (some centres not stated)	Acinetobacter baumannii	µg/mL	6.25
CCCCCCCCCCCCCCOP(=O)(CCN(CCCNC(=N)N)CCCNC(=N)N)OC[C@H]1O[C@@H](n2ccc(=O)[nH]c2=O)[C@H](O)[C@@H]1O (some centres not stated)	Acinetobacter baumannii	µg/mL	12.5
CCCCCCCCCCCCCCCOP(=O)(CCN(CCCNC(=N)N)CCCNC(=N)N)OC[C@H]1O[C@@H](n2ccc(=O)[nH]c2=O)[C@H](O)[C@@H]1O (some centres not stated)	Acinetobacter baumannii	µg/mL	3.13

Request body: readout MIC, system Acinetobacter baumannii, query CCCCCCCCCCCCCCCOP(=O)(CCN1CCC(N)C1)OC[C@H]1O[C@@H](n2ccc(=O)[nH]c2=O)[C@H](O)[C@@H]1O (some centres not stated) . Return the value.
6.25

Request body: readout MIC, system Acinetobacter baumannii, query CCCCCCCCCCCCCCOP(=O)(CCN(CCCN)CCCN)OC[C@H]1O[C@@H](n2ccc(=O)[nH]c2=O)[C@H](O)[C@@H]1O (some centres not stated) . Return the value.
12.5

* * *

Test system: Escherichia coli
protocol-details: Antibacterial activity against Escherichia coli CCM 3954 after 24 hrs by microdilution method
Assay type: functional
assay-conditions: CCM 3954, 24 h
The compounds listed here are annotated with their MIC.
Enter your answer as a number in µg/mL; do not include the unit.

compound	unit	MIC
CCCCCCCCCCCCCCCOP(=O)(CCN(CCCN)CCCN)OC[C@H]1O[C@@H](n2ccc(=O)[nH]c2=O)[C@H](O)[C@@H]1O (some centres undefined)	µg/mL	6.25
CCCCCCCCCCCCCCOP(=O)(CCN(CCN)CCN)OC[C@H]1O[C@@H](n2ccc(=O)[nH]c2=O)[C@H](O)[C@@H]1O (some centres undefined)	µg/mL	12.5
CCCCCCCCCCCCCCCOP(=O)(CCN1CCC(N)C1)OC[C@H]1O[C@@H](n2ccc(=O)[nH]c2=O)[C@H](O)[C@@H]1O (some centres undefined)	µg/mL	6.25

Would you mind telling me what MIC value was observed for CCCCCCCCCCCCCCCOP(=O)(CCN(CCN)CCN)OC[C@H]1O[C@@H](n2ccc(=O)[nH]c2=O)[C@H](O)[C@@H]1O (some centres undefined) ?
1.56

* * *

Tested on: Staphylococcus haemolyticus
protocol-details: Antibacterial activity against fluoroquinolne-resistant Staphylococcus haemolyticus 16568 after 24 hrs by microdilution method
Format: functional
assay-conditions: Staphylococcus haemolyticus, 16568, 24 h
endpoint: MIC (µg/mL)
Enter your answer as a number in µg/mL; do not include the unit.

See these solved cases before continuing.
compound	reported
CCCCCCCCCCCCCCOP(=O)(CCN1CCC(N)C1)OC[C@H]1O[C@@H](n2ccc(=O)[nH]c2=O)[C@H](O)[C@@H]1O (stereo partly specified)	6.25
CCCCCCCCCCCCCCOP(=O)(CCN(CCCNC(=N)N)CCCNC(=N)N)OC[C@H]1O[C@@H](n2ccc(=O)[nH]c2=O)[C@H](O)[C@@H]1O (stereo partly specified)	3.13

Would you mind telling me what MIC value was observed for CCCCCCCCCCCCCCCOP(=O)(CCN(CCCNC(=N)N)CCCNC(=N)N)OC[C@H]1O[C@@H](n2ccc(=O)[nH]c2=O)[C@H](O)[C@@H]1O (stereo partly specified) ?
1.56

Would you mind telling me what MIC value was observed for CCCCCCCCCCCCCCCOP(=O)(CCN(CCNC(=N)N)CCNC(=N)N)OC[C@H]1O[C@@H](n2ccc(=O)[nH]c2=O)[C@H](O)[C@@H]1O (stereo partly specified) ?
6.25

Would you mind telling me what MIC value was observed for CCCCCCCCCCCCCCCCOP(=O)(CCN(CCCNC(=N)N)CCCNC(=N)N)OC[C@H]1O[C@@H](n2ccc(=O)[nH]c2=O)[C@H](O)[C@@H]1O (stereo partly specified) ?
1.56

Would you mind telling me what MIC value was observed for CCCCCCCCCCCCCCCOP(=O)(CCN1C[C@@H](O)[C@@H](N)C1)OC[C@H]1O[C@@H](n2ccc(=O)[nH]c2=O)[C@H](O)[C@@H]1O (stereo partly specified) ?
12.5

* * *

The compounds listed here are annotated with their MIC.
System: Pseudomonas aeruginosa
protocol-details: Antibacterial activity against Pseudomonas aeruginosa CCM 3955 after 24 hrs by microdilution method
Format: functional
assay-conditions: CCM 3955, 24 h
Enter your answer as a number in µg/mL; do not include the unit.

See these solved cases before continuing.
compound	MIC, µg/mL
CCCCCCCCCCCCCCCCOP(=O)(CCN(CCCN)CCCN)OC[C@H]1O[C@@H](n2ccc(=O)[nH]c2=O)[C@H](O)[C@@H]1O (stereo partly drawn)	6.25
CCCCCCCCCCCCCOP(=O)(CCN(CCCN)CCCN)OC[C@H]1O[C@@H](n2ccc(=O)[nH]c2=O)[C@H](O)[C@@H]1O (stereo partly drawn)	3.13

Now for the compound whose MIC we want.
Would you mind telling me what MIC value was observed for CCCCCCCCCCCCCCOP(=O)(CCN(CCCNC(=N)N)CCCNC(=N)N)OC[C@H]1O[C@@H](n2ccc(=O)[nH]c2=O)[C@H](O)[C@@H]1O (stereo partly drawn) ?
3.13
